compounds and their reported IC50
biological target: recombinant purified human EHMT2 913-1193 (Homo sapiens); construct: Recombinant purified human EHMT2 913-1193 (55 μM) synthesized by Viva was used for all experiments; purchased Viva; assay: EHMT2 enzyme assay on histone peptide substrate (3H-SAM Flashplate); assay type: biochemical; conditions: read-out: EHMT2 PEP (IC50 μM)
Sequence (Q96KQ7 913-1193): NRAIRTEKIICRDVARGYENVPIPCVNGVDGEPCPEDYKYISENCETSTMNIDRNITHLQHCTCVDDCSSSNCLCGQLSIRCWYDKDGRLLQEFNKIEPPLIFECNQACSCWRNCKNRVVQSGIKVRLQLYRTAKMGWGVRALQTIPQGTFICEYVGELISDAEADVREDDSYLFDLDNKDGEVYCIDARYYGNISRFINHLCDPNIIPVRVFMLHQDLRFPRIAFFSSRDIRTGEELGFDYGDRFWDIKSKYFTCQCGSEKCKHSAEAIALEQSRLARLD

Consider the worked cases shown below.
• CNc1cc(C)nc(Nc2ccc(OC)c(-c3cn4c(n3)CNCC4)c2)n1 [Compound 7] = 1 to 10 µM
• CNc1cc(C)nc(Nc2ccc(OC)c(-n3ncc4c3CCCN4)c2)n1 [Compound 32] = > 10 µM
• CNc1cc(C)nc(Nc2ccc(OC)c(-c3nc4c([nH]3)CNCC4)c2)n1 [Compound 78] = 1 to 10 µM

Request: Fill in the blank: the reported IC50 of CNc1cc(C)nc(Nc2ccc(OC)c(-n3ncc4ccncc43)c2)n1 [Compound 36] is ____.
Result: > 10 µM

The reported measurements were obtained from patent US20220235065A1.
